# Test method notes: Single-dose bioavailability of L-dC in the woodchuck
# Assay type: in vivo
# Assay conditions: plasma; L-dC 10 mg/kg single IV dose, n=3, t = 0.033 hours, mean; read-out: AUCt→24 of L-dC
Result type: AUC(0-t) (µM·h)
Numeric only. Scale: µM·h

Query: AUC(0-t); subject: Nc1ccn([C@@H]2CC(O)[C@H](CO)O2)c(=O)n1 (stereo partly shown) 174

---

# Test method notes: Single-dose bioavailability of L-dC in the rat
# Assay conditions: Sprague-Dawley, plasma, po, 10 mg/kg
Result type: Cmax (nM)
Number only, in nM; omit the unit.

Record request: Cmax value, item Nc1ccn([C@@H]2CC(O)[C@H](CO)O2)c(=O)n1 (stereo partly shown) 1500

---

# Test method notes: Single-dose bioavailability of L-dC in the woodchuck
# Format: in vivo
# Assay conditions: plasma; L-dC 10 mg/kg single PO dose, mean
# Experimental: Plasma drug levels, CL, ty, and F were determined.
Result type: Cmax
// unit must come after the numeric part

Give its Cmax value. Item: Nc1ccn([C@@H]2CC(O)[C@H](CO)O2)c(=O)n1 (stereo partly shown) 1.37 µM

---

# Test method notes: Bioavailability of the prodrugs of L-dC
# Assay conditions: cynomolgus monkey, plasma, po, 10 mg/kg
Result type: bioavailability

Need bioavailability, item Nc1ccn([C@@H]2CC(O)[C@H](CO)O2)c(=O)n1 (stereo partly drawn) [L-dC, 2′-Deoxy-β-L-cytidine] 16.4%

---

# Test method notes: Single-dose bioavailability of L-dC in the rhesus monkey
# Assay conditions: rhesus monkey, blood, po, 10 mg/kg
Result type: Tmax (min)
Note: unit min is implicit; provide only the numeric part.

Tell me the measured Tmax of Nc1ccn([C@@H]2CC(O)[C@H](CO)O2)c(=O)n1 (stereo partly drawn) [L-dC, 2′-Deoxy-β-L-cytidine] , please. 49.8

---

# Tested on: L515M/M552I mutant HBV, cell line MI4
# Test method notes: Antiviral testing in stable HepG2 cell lines, EPA of intracellular nucleocapsids
# Assay type: cell-based, hepatitis B virus
# Assay conditions: Hepatitis B virus, HepG2, L515M/M552I, cell line MI4; mean ± SD of three to four experiments; read-out: EC50
Result type: pEC50
Value format note: pEC50 is -log10 of concentration (mol/L); just state the number.

Fill blank: measured pEC50 of the compound Nc1ncnc2c1ncn2CCOCP(=O)(O)O [PMEA, 9-{2-(phosphonomethoxy)ethyl}adenine, reference compound] is ____. 5.83

---

# Tested on: M552V mutant HBV, cell line V1/C9
# Test method notes: Antiviral testing in stable HepG2 cell lines, EPA of intracellular nucleocapsids
# Assay type: cell-based, hepatitis B virus
# Assay conditions: M552V, cell line V1/C9; mean ± SD of three to four experiments
Structures can show the parent of a compound that is named as a salt.
Result type: EC50

Can you share its EC50? I mean this compound: Nc1ccn([C@@H]2C[C@@H](O)[C@H](CO)O2)c(=O)n1 [LdC-HCl] 0.36 µM

---

# Test method notes: in vivo
# Assay conditions: female, Sprague-Dawley, rat, iv, 10 mg/kg
Result type: half-life (h)
# output: bare number, implied unit h

Using the record for Nc1ccn([C@@H]2CC(O)[C@H](CO)O2)c(=O)n1 (stereo partly drawn) [L-dC, 2′-Deoxy-β-L-cytidine] , report its half-life. 1.21
